# System: HeLa
# Assay Summary: Antitumor activity against human HeLa cells assessed as inhibition of cell growth by MTT assay
# Assay type: functional, cell-based
Measurement Type: IC50 (µM)

smiles_string=CC(C)(COC(=O)/C=C/c1ccc(O)c(O)c1)[N+](=O)[O-] operator_symbol== measured_number=23.6
smiles_string=COc1cc(/C=C/C(=O)NC23CC4CC(CC(C4)C2)C3)cc(Br)c1O operator_symbol=> measured_number=100
smiles_string=COc1cc(/C=C/C(=O)NC23CC4CC(CC(C4)C2)C3)ccc1O operator_symbol=> measured_number=100
smiles_string=C#CCOC(=O)/C=C/c1ccc(O)c(O)c1 operator_symbol== measured_number=19.2
